The origin of these recorded values is patent US20140288323A1.

Assay comment: Rearrangement rate study: storage stability of cyclopropenimine 5 and 5.HCl by 1H NMR
Type: physicochemical
Assay setup: neat solid in a vial; pure sample stored at room temperature, followed over 30 days; read-out: t1/2 of conversion to rearranged compound 13 (converted)
Endpoint label: half-life

Look up half-life of `OC[C@H](Cc1ccccc1)N=c1c(N(C2CCCCC2)C2CCCCC2)c1N(C1CCCCC1)C1CCCCC1` and report it.
~12 days
